- tested on: IGF-1R (Homo sapiens, UniProt P08069)
- Sequence (P08069 31-1367): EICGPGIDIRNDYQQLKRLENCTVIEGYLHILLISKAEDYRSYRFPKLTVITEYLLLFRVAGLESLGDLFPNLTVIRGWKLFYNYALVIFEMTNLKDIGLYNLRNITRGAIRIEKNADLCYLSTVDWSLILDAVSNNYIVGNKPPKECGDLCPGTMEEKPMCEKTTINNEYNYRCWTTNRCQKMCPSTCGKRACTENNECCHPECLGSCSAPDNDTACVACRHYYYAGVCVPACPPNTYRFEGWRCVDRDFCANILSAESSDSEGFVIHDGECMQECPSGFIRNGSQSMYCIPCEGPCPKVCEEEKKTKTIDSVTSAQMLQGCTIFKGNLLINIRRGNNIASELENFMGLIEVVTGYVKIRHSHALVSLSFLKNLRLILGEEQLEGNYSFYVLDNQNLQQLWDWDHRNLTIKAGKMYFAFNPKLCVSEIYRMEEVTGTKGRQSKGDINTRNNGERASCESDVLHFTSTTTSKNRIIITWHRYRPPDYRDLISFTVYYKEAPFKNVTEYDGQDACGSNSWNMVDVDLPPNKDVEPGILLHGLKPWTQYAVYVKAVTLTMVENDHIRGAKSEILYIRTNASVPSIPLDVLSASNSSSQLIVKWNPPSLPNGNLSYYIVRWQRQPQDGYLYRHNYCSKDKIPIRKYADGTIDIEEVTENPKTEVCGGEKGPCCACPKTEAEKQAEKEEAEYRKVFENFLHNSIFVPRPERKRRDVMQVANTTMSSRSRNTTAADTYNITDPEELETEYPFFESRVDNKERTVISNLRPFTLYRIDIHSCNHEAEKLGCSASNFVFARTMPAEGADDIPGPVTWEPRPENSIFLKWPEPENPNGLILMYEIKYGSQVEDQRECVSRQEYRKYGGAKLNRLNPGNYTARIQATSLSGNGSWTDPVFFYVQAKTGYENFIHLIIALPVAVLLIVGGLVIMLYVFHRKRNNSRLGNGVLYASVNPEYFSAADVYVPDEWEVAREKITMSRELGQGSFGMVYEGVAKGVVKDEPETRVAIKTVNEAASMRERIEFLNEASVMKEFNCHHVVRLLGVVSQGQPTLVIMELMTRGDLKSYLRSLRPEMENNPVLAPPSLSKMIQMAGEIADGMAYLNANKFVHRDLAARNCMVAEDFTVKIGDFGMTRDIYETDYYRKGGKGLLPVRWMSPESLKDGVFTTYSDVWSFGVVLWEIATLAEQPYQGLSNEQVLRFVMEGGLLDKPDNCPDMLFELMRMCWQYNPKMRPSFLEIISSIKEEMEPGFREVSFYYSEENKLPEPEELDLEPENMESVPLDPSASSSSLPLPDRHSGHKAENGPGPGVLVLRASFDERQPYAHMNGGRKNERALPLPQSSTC
- assay summary: Cellular IGF-1R assay: capture ELISA (MSD) of receptor phosphorylation in Hek293 cells
- assay context: Hek293-IGF1R cells, 1 h pre-incubation, 10 min IGF stimulation, pIGF1R capture ELISA

{"compound": "CNC(=O)[C@H]1CCCN1C[C@H]1C[C@@H](n2cc(-c3cccc(OCC4CCCCO4)c3)c3c(N)ncnc32)C1 (some centres unmarked)", "result comparator": "=", "IC50, nM": 444}
{"compound": "NC(=O)[C@H]1CCCN1CC1(O)CC(n2cc(-c3cccc(OCC45CCC(CC4)O5)c3)c3c(N)ncnc32)C1 (some centres unmarked)", "result comparator": "=", "IC50, nM": 312}
{"compound": "CC(=O)N1CC2CC1CN2[C@H]1C[C@@H](n2cc(-c3cccc(OCC45CCC(CC4)O5)c3)c3c(N)ncnc32)C1 (relative stereo)", "result comparator": "=", "IC50, nM": 182}
{"compound": "CC1(C)CS(=O)(=O)CCN1CC1CCC(n2cc(-c3cccc(OCC45CCC(CC4)O5)c3)c3c(N)ncnc32)CC1 (centres unmarked)", "result comparator": "=", "IC50, nM": 456}
{"compound": "CN1CCN([C@H]2CC[C@@H](n3cc(-c4cccc(OCC56CCC(CC5)O6)c4)c4c(N)ncnc43)CC2)CC1", "result comparator": "=", "IC50, nM": 101}
{"compound": "Nc1ncnc2c1c(-c1cccc(OCC34CCC(CC3)O4)c1)cn2[C@H]1CC[C@@H](CN2CC[C@@H](O)C2)CC1", "result comparator": "=", "IC50, nM": 25}
{"compound": "CN(C)[C@H]1CC[C@H](n2cc(-c3cccc(OCC45CCC(CC4)O5)c3)c3c(N)ncnc32)CC1 (relative stereo)", "result comparator": "=", "IC50, nM": 88}
{"compound": "NC(=O)[C@@H]1[C@@H]2C[C@@H]2CN1CC1CC(n2cc(-c3cccc(OCC4CCCCO4)c3)c3c(N)ncnc32)C1 (some centres unmarked)", "result comparator": "=", "IC50, nM": 43}
{"compound": "Nc1ncnc2c1c(-c1cccc(OCC34CCC(CC3)O4)c1)cn2C1CC(CN2CC3CC2CS3)C1 (centres unmarked)", "result comparator": "=", "IC50, nM": 74}
{"compound": "CC1(C)CCC(COc2cccc(-c3cn(C4CCC(N5CCC[C@H]5C(N)=O)CC4)c4ncnc(N)c34)c2)O1 (some centres unmarked)", "result comparator": "=", "IC50, nM": 388}
{"compound": "CC1(C)CCC(COc2cccc(-c3cn([C@H]4C[C@H](CN5CCC[C@H]5C(N)=O)C4)c4ncnc(N)c34)c2)O1 (some centres unmarked)", "result comparator": "<", "IC50, nM": 4}
{"compound": "Nc1ncnc2c1c(-c1cccc(OCC34CCC(CC3)O4)c1)cn2C1CC(N2CCN(CCO)CC2)C1 (centres unmarked)", "result comparator": "=", "IC50, nM": 44}
{"compound": "Nc1ncnc2c1c(-c1cccc(OCC34CCC(CC3)O4)c1)cn2[C@H]1C[C@@](O)(CN2CCS(=O)(=O)CC2)C1", "result comparator": "=", "IC50, nM": 14}
{"compound": "CC1(C(N)=O)CCCN1CC1CC(n2cc(-c3cccc(OCC4CCCCO4)c3)c3c(N)ncnc32)C1 (centres unmarked)", "result comparator": "=", "IC50, nM": 26}
{"compound": "Nc1ncnc2c1c(-c1cccc(OC[C@@H]3CCCO3)c1)cn2C1CC2(CNC(=O)O2)C1 (some centres unmarked)", "result comparator": "=", "IC50, nM": 366}
{"compound": "CC1(C)CN(CC2CC(n3cc(-c4cccc(OCC5CCCCO5)c4)c4c(N)ncnc43)C2)[C@H](C(N)=O)CO1 (some centres unmarked)", "result comparator": "=", "IC50, nM": 28}
{"compound": "Nc1ncnc2c1c(-c1cccc(OCC3CCCCO3)c1)cn2[C@H]1C[C@@H](CN2CC(O)C2)C1 (relative stereo)", "result comparator": "=", "IC50, nM": 294}
{"compound": "Nc1ncnc2c1c(-c1cccc(OCC34CCC(CC3)O4)c1)cn2[C@H]1C[C@@H](CN2C3CCC2CC(O)C3)C1 (some centres unmarked)", "result comparator": "=", "IC50, nM": 6}
{"compound": "NC(=O)[C@@H]1CCCN1C[C@H]1C[C@@H](n2cc(-c3cccc(OCC4CCCO4)c3)c3c(N)ncnc32)C1 (some centres unmarked)", "result comparator": "=", "IC50, nM": 39}
{"compound": "Nc1ncnc2c1c(-c1cccc(OCC34CCC(CC3)O4)c1)cn2[C@H]1CC[C@H](N)CC1 (relative stereo)", "result comparator": "=", "IC50, nM": 211}
{"compound": "Nc1ncnc2c1c(-c1cccc(OCC34CCC(CC3)O4)c1)cn2[C@H]1C[C@@H](N2CCS(=O)(=O)CC2)C1 (relative stereo)", "result comparator": "=", "IC50, nM": 17}
